Cited source for all entries: patent US6825181B1

Biological target: human thrombin (Homo sapiens)
Construct: solution of human thrombin (a product of SIGMA Co.); purchased SIGMA Co
Assay: Determination of thrombin-inhibiting activity
Format: biochemical
Details: negative logarithm of concentration inhibiting 50% of initial rate; substrate S-2238, pH 8.4; read-out: Thrombin-inhibiting activity (pIC50) (converted)
observed property: IC50 (µM)
Reply with just the number (in µM).

Recorded IC50, per entry:
>>> print(df.to_string())
                                   molecule  quantitative_result
0  Nc1nccc2ccc(OC[C@@H](CCC(=O)O)NC(=O)C3CCN(c4ccncc4)CC3)cc12 [Compound of Ex. 21]                  316
1  CCOC(=O)CC[C@H](COc1ccc2ccnc(N)c2c1)NC(=O)c1ccc(C(=O)N2CCCC2)cc1 [Compound of Ex. 17, mono-trifluoroacetate]                  316
2  N=C(N)Nc1ccc(C(=O)N[C@H](CCC(=O)O)COc2ccc3ccnc(N)c3c2)cc1 [Compound of Ex. 25, mono-trifluoroacetate]                  794

// next item, IC50 requested
Answer with IC50 of Nc1nccc2cc(CC(=O)C(=O)O)c(OCCNC(=O)c3ccc(C(=O)N4CCCC4)cc3)cc12 [Compound of Ex. 23, mono-trifluoroacetate] measured for human thrombin (Homo sapiens). 15.8

---

Molecular target: activated human blood coagulation factor X (Homo sapiens)
Construct: purchased Enzyme Research Co
Assay: Determination of activity of inhibiting the activated blood-coagulation factor X
Assay type: biochemical
Conditions: negative logarithm of concentration inhibiting 50% of initial rate; pH 8.4, room temperature; read-out: Activity of inhibiting activated blood coagulation factor X (pIC50) (converted)
Listed next: entries and their corresponding IC50.
The figure you give is taken to be in nM; do not add the unit.

See these solved cases before continuing.
In [3]: df
Out[3]:
                                   compound                            assayed_system  quantitative_result
0  Nc1nccc2ccc(OC[C@@H](CCC(=O)O)NC(=O)c3ccc(C(=O)N4CCCC4)cc3)cc12 [Compound of Ex. 16, mono-trifluoroacetate]  activated human blood coagulation factor X (Homo sapiens)                 79.4
1  Nc1nccc2cc(CC(=O)C(=O)O)c(OCCNC(=O)C3CCN(c4ccncc4)CC3)cc12  activated human blood coagulation factor X (Homo sapiens)                  251

Could you now consider this next compound?
Enter recorded IC50 with activated human blood coagulation factor X (Homo sapiens) for Nc1nccc2cc(CC(=O)C(=O)O)c(OCCNC(=O)c3ccc(C(=O)N4CCCC4)cc3)cc12 [Compound of Ex. 23, mono-trifluoroacetate] here. 25.1

---

Target: activated human blood coagulation factor X (Homo sapiens, UniProt P00742)
Construct: purchased Enzyme Research Co
Sequence (P00742 235-488 limits assumed): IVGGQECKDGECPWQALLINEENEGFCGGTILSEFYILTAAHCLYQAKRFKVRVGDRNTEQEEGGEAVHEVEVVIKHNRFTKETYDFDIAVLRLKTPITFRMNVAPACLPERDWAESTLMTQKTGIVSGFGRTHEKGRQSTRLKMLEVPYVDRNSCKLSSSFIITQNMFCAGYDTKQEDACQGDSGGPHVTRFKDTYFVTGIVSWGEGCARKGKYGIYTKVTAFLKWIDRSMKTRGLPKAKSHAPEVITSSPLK
Sequence (P00742 41-179 partner limits assumed): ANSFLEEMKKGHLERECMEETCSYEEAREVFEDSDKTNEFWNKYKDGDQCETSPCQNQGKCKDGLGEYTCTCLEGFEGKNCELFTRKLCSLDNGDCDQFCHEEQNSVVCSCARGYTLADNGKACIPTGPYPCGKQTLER
Experiment: Determination of activity of inhibiting the activated blood-coagulation factor X
Format: biochemical
Conditions: negative logarithm of concentration inhibiting 50% of initial rate; pH 8.4, room temperature; read-out: Activity of inhibiting activated blood coagulation factor X (pIC50) (converted)
observed property: IC50 (nM)
Lab book: enter the figure in nM, no units written.

                                   compound  quantitative_result
0  N=C(N)Nc1ccc(C(=O)N[C@H](CCC(=O)O)COc2ccc3ccnc(N)c3c2)cc1 [Compound of Ex. 25, mono-trifluoroacetate]                  398
1  CC(=N)N1CCC(Oc2ccc(C(=O)NCCOc3cc4c(N)nccc4cc3CC(=O)C(=O)O)cc2)CC1 [Compound of Ex. 26, bistrifluoroacetate]                  200
2  Nc1nccc2ccc(OC[C@@H](CCC(=O)O)NC(=O)C3CCN(c4ccncc4)CC3)cc12                  158
3  CCOC(=O)CC[C@H](COc1ccc2ccnc(N)c2c1)NC(=O)c1ccc(C(=O)N2CCCC2)cc1 [Compound of Ex. 17, mono-trifluoroacetate]                  251

Now, please, on to the next compound.
Fill in IC50 for Nc1nccc2ccc(OCCNC(=O)c3ccc(C(=O)N4CCCC4)cc3)cc12 [Compound of Ex. 2, mono-trifluoroacetate] tested with activated human blood coagulation factor X (Homo sapiens, UniProt P00742). 251
